This collection of values is drawn from patent US20240043504A1.

Study system: SARS-CoV-2 RBD extracellular domain expressed with a C-terminal mouse IgG2a (SARS-COV-2 RBD-mFc) (SARS-CoV-2)
Reported property: koff (s⁻¹)
The figure you give is taken to be in s⁻¹; do not add the unit.

Record excerpt, results attached:
1) mAb10982 (antibody, V domains shown) VH: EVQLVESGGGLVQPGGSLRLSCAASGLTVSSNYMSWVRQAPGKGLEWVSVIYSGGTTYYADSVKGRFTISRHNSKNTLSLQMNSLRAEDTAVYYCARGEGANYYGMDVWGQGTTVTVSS VL: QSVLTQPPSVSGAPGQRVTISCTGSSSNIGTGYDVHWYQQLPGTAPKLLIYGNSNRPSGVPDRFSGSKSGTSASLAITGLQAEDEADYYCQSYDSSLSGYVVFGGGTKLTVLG    1.69e-05
2) mAb10913 (antibody, V domains shown) VH: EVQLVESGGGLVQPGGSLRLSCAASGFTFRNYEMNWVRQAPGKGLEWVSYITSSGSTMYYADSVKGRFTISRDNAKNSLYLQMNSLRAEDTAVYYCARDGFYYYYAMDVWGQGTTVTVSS VL: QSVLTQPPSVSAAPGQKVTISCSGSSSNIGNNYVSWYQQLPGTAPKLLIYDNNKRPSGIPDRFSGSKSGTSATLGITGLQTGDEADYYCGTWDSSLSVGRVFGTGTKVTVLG    0.000152

Given the binder mAb10939 (antibody, V domains shown) VH: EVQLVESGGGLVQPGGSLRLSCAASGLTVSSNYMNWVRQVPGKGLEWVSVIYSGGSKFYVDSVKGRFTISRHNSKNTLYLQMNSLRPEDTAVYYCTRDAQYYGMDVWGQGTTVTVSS VL: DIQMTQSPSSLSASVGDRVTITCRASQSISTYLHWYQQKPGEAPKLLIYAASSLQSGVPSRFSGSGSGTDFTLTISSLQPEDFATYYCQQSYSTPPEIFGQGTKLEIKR , what is its reported koff?
1.15e-05
